Provide the recorded IC50 for the entries that follow.
- System Name: Human JNK 3 (Homo sapiens)
- Construct: made in house; host or cells: Escherichia coli
- Sequence (P53779 whole entry): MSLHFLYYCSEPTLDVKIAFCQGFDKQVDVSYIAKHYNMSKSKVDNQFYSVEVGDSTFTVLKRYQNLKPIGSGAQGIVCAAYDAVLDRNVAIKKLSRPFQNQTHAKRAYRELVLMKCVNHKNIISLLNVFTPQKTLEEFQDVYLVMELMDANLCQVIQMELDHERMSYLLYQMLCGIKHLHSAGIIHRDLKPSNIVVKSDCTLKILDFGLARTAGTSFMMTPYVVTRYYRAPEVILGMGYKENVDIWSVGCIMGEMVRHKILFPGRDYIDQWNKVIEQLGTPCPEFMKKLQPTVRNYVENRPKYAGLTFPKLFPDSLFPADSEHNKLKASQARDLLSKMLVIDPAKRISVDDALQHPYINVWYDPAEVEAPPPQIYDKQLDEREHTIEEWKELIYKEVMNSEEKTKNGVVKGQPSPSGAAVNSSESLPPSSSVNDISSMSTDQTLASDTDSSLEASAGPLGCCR
- Protocol Details: Measurement of JNK 3 inhibition (GST-JNK3, GST-c-Jun substrate, [γ-33P]ATP, SPA beads)
- Type: biochemical
- Condition Description: selectivity table, compared with ERK2; read-out: JNK3 inhibitory activity
- Method: Measurement of JNK 3 Inhibition Human JNK 3 was expressed as a fusion protein (GST-JNK 3) with glutathione S-transferase (GST) in Escherichia coli and was purified using glutathione Sepharose 4B beads. […] The mixture was centrifuged at room temperature at 1000×g for 5 minutes, and the emission intensity thereof was determined on a TopCount™ illuminator (available from available from PerkinElmer Life Sciences). […]
// units = nM; emit number, no label

INPUT: Look up and state reported IC50 for O=C(NCc1ccco1)c1ccc2[nH]nc(/C=C/c3cccc(F)c3)c2c1 [Reference example 1, reference compound]
OUTPUT: 92

INPUT: Look up and state reported IC50 for O=C(NCc1ccco1)c1cc2c(/C=C/c3cccc(F)c3)n[nH]c2cc1F
OUTPUT: 55
